# Study System: STK11 (human) (UniProt Q15831)
# Sequence (Q15831 whole entry, looked up): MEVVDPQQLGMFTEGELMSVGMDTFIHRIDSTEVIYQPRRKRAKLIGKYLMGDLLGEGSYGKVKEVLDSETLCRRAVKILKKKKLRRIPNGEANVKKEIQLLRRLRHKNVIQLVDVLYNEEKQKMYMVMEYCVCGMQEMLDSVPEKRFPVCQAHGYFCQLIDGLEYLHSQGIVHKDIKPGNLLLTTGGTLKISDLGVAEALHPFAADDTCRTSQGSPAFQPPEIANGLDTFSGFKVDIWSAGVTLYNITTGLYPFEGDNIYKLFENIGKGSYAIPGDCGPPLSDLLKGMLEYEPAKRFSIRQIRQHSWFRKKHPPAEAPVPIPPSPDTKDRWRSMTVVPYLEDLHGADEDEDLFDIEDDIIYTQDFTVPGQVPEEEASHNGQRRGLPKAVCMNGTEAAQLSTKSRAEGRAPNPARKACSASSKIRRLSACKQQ
# Experiment Description: radiometric filter-binding kinase assay, Kinase HotSpot
# Cond: compound 0.5 µM; ATP 10 µM
Reported values of residual activity for individual entries

Compound	residual activity, %
O=C1Nc2ccccc2/C1=C1/Nc2ccccc2/C1=N\OCCC(O)CO (centres undefined)	5.77
CCN(CC)CCCCN1c2ccccc2Oc2ccc(Cl)cc21	94.4
CN(C)C[C@H]1CCn2c(c(C3=C(c4cn(C)c5ccccc45)C(=O)NC3=O)c3ccccc32)C1	91.9
O=C(O)/C=C/c1cc(Br)c(Br)c(Br)c1Br	42.8

----------
Reported values of residual activity for individual entries
# Study System: PRKD2 (human) (UniProt Q9BZL6)
# Sequence (Q9BZL6 whole entry, looked up): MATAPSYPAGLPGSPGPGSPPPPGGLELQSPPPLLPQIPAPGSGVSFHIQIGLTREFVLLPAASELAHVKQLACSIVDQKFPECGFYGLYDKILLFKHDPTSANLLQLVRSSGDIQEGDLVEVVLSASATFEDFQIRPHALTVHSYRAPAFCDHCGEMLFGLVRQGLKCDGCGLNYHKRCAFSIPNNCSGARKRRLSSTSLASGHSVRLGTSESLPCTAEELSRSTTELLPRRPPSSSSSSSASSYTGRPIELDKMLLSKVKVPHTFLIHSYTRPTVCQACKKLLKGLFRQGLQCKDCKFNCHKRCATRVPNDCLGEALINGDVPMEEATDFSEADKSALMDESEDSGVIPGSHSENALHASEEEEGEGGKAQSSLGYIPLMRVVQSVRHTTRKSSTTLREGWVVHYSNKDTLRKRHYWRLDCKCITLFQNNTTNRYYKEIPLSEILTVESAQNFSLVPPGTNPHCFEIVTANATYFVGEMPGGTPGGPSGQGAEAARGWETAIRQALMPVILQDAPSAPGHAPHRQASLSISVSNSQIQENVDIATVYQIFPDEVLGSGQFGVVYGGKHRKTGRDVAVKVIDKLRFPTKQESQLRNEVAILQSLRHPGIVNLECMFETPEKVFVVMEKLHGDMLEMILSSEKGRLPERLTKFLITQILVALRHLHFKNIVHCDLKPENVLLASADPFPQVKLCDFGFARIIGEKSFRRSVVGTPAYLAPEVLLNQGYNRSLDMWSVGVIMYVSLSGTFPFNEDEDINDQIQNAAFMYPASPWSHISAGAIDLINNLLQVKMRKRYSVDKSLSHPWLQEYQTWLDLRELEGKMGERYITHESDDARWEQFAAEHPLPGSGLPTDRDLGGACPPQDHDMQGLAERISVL
# Experiment Description: radiometric filter-binding kinase assay, Kinase HotSpot
# Cond: compound 0.5 µM; ATP 10 µM

Record Smiles	Study System	residual activity
CC(=O)O/N=C1\C(=C2\C(=O)Nc3cc(Br)ccc32)Nc2ccccc21	PRKD2 (human) (UniProt Q9BZL6)	87.8%
Nc1nccc(-c2c(-c3ccc(F)cc3)ncn2C2CCNCC2)n1	PRKD2 (human) (UniProt Q9BZL6)	50.4%
O=C1Cc2c([nH]c3ccc(Br)cc23)-c2ccccc2N1	PRKD2 (human) (UniProt Q9BZL6)	100%
CN([C@@H](Cc1ccc(OS(=O)(=O)c2cccc3cnccc23)cc1)C(=O)N1CCN(c2ccccc2)CC1)S(=O)(=O)c1cccc2cnccc12	PRKD2 (human) (UniProt Q9BZL6)	100%
O=C(O)/C=C/c1cc(Br)c(Br)c(Br)c1Br	PRKD2 (human) (UniProt Q9BZL6)	71.6%
O=C1NC(=O)C(c2c[nH]c3ccccc23)=C1c1c[nH]c2ccccc12	PRKD2 (human) (UniProt Q9BZL6)	87.4%
Cc1nc2cc3nc(-c4cccs4)cnc3cc2n1C	PRKD2 (human) (UniProt Q9BZL6)	106%
Cn1sc(=O)n(Cc2ccccc2)c1=O	PRKD2 (human) (UniProt Q9BZL6)	95.1%
Oc1ccc(Nc2nc(-c3ccc(Cl)cc3)cs2)cc1	PRKD2 (human) (UniProt Q9BZL6)	102%
O=C(CCCc1ccc(-c2ccccc2F)cc1)Nc1ccc(O)cc1	PRKD2 (human) (UniProt Q9BZL6)	97.6%
CN(C)C[C@H]1CCn2c(c(C3=C(c4cn(C)c5ccccc45)C(=O)NC3=O)c3ccccc32)C1	PRKD2 (human) (UniProt Q9BZL6)	97.6%
CC(C)c1nn(-c2c(Cl)cccc2Cl)c2nc(Cc3ccc(OCCO)cc3)nc(O)c12	PRKD2 (human) (UniProt Q9BZL6)	88.4%
COc1cc2ncnc(N3CCN(C(=O)Nc4ccc(Oc5ccccc5)cc4)CC3)c2cc1OC	PRKD2 (human) (UniProt Q9BZL6)	91.9%
Nc1nnc2[nH]c3ccccc3nc1-2	PRKD2 (human) (UniProt Q9BZL6)	94.5%
CCN(CC)CCCCN1c2ccccc2Oc2ccc(Cl)cc21	PRKD2 (human) (UniProt Q9BZL6)	105%
O=C1NC(=O)/C(=C\c2ccc3nccnc3c2)S1	PRKD2 (human) (UniProt Q9BZL6)	104%
COc1cc2ncc(-c3ccccc3)nc2cc1OC	PRKD2 (human) (UniProt Q9BZL6)	93.8%
O=C1NC(=O)C(c2cn(CCCO)c3ncccc23)=C1c1cnccn1	PRKD2 (human) (UniProt Q9BZL6)	118%
O=C(Nc1cccc(Nc2cc(Nc3cccc(C(F)(F)F)c3)ncn2)c1)C1CC1	PRKD2 (human) (UniProt Q9BZL6)	103%
Cn1nc2c3c(cccc31)C(=O)c1ccccc1-2	PRKD2 (human) (UniProt Q9BZL6)	77%

----------
# Study System: TBK1 (human) (UniProt Q9UHD2)
# Sequence (Q9UHD2 whole entry, looked up): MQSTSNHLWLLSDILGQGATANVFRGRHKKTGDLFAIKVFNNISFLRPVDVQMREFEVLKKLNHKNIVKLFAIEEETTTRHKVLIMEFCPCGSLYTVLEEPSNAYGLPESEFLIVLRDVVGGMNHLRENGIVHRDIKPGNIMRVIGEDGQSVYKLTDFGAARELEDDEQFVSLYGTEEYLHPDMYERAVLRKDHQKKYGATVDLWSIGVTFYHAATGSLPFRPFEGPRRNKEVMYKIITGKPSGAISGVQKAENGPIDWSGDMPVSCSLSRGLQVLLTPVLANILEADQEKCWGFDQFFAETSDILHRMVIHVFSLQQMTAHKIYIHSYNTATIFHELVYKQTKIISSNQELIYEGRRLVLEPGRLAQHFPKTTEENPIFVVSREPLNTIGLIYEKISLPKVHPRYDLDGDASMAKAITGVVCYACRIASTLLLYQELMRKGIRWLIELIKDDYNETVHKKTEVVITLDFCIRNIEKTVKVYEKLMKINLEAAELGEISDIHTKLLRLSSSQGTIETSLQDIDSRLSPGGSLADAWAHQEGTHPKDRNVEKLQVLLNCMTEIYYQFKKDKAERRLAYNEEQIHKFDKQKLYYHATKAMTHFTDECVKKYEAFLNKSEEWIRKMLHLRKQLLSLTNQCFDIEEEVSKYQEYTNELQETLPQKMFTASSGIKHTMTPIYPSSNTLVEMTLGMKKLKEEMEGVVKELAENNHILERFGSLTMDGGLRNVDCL
# Experiment Description: radiometric filter-binding kinase assay, Kinase HotSpot
# Cond: compound 0.5 µM; ATP 10 µM
The label depends only on residual activity: y if it is at least 90%, n if it is smaller.

Compound	Study System	Assigned Label
Cc1nc2cc3nc(-c4cccs4)cnc3cc2n1C	TBK1 (human) (UniProt Q9UHD2)	y
COc1cc2ncc(-c3ccccc3)nc2cc1OC	TBK1 (human) (UniProt Q9UHD2)	n
O=C1Nc2ccccc2/C1=C1/Nc2ccccc2/C1=N\OCCC(O)CO (configuration not stated)	TBK1 (human) (UniProt Q9UHD2)	n
COc1cc2ncnc(N3CCN(C(=O)Nc4ccc(Oc5ccccc5)cc4)CC3)c2cc1OC	TBK1 (human) (UniProt Q9UHD2)	y
CC(C)[C@H](CO)Nc1nc(Nc2cc(N)cc(Cl)c2)c2ncn(C(C)C)c2n1	TBK1 (human) (UniProt Q9UHD2)	n
CC(C)c1nn(-c2c(Cl)cccc2Cl)c2nc(Cc3ccc(OCCO)cc3)nc(O)c12	TBK1 (human) (UniProt Q9UHD2)	y
O=C1NC(=O)C(c2cn(CCCO)c3ncccc23)=C1c1cnccn1	TBK1 (human) (UniProt Q9UHD2)	y
O=C1NC(=O)C(c2c[nH]c3ccccc23)=C1c1c[nH]c2ccccc12	TBK1 (human) (UniProt Q9UHD2)	n
Cn1sc(=O)n(Cc2ccccc2)c1=O	TBK1 (human) (UniProt Q9UHD2)	y

----------
# Study System: MAP3K7 TAB1 (human) (UniProt O43318+Q15750)
# Sequence (O43318 whole entry, looked up): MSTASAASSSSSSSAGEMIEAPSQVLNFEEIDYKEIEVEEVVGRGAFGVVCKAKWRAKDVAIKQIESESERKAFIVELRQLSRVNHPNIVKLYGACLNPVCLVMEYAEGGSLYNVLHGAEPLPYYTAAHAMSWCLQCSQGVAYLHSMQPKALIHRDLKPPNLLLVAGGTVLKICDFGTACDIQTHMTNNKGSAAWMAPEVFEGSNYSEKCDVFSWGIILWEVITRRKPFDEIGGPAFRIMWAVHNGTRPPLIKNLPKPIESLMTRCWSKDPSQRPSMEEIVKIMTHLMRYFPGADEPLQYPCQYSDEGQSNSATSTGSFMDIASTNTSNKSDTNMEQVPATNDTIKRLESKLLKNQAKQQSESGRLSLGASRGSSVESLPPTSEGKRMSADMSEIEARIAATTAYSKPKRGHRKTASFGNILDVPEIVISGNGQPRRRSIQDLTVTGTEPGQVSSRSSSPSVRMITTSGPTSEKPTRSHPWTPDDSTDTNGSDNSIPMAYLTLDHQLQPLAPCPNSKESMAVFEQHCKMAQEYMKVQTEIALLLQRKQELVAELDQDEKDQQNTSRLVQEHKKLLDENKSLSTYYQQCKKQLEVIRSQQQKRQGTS
# Sequence (Q15750 whole entry, looked up): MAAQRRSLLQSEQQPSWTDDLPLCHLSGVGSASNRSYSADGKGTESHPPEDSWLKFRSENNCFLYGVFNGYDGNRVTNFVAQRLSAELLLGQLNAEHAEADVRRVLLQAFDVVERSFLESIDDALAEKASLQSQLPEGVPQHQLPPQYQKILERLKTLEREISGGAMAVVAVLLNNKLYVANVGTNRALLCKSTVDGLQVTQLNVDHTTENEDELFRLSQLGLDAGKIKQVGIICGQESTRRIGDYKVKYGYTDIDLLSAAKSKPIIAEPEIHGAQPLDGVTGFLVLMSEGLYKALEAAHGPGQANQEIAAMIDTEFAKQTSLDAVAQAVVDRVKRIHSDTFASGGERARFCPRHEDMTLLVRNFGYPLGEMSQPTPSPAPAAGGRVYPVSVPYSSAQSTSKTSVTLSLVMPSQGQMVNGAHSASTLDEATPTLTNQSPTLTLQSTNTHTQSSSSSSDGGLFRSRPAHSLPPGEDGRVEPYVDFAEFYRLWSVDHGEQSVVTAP
# Experiment Description: radiometric filter-binding kinase assay, Kinase HotSpot
# Cond: compound 0.5 µM; ATP 10 µM
Readout: residual activity (%)

Record Smiles	Readout	Measured Number
O=C(CCCc1ccc(-c2ccccc2F)cc1)Nc1ccc(O)cc1	residual activity	105
O=C(O)/C=C/c1cc(Br)c(Br)c(Br)c1Br	residual activity	98.4
CCn1cnc2c(Nc3cccc(Cl)c3)nc(N[C@@H]3CCCC[C@@H]3N)nc21	residual activity	98.9
O=C1NC(=O)C(c2c[nH]c3ccccc23)=C1c1c[nH]c2ccccc12	residual activity	97
COc1cc2ncnc(N3CCN(C(=O)Nc4ccc(Oc5ccccc5)cc4)CC3)c2cc1OC	residual activity	98.3
CC(=O)O/N=C1\C(=C2\C(=O)Nc3cc(Br)ccc32)Nc2ccccc21	residual activity	97.4
CC(C)c1nn(-c2c(Cl)cccc2Cl)c2nc(Cc3ccc(OCCO)cc3)nc(O)c12	residual activity	98.5
CCN(CC)CCCCN1c2ccccc2Oc2ccc(Cl)cc21	residual activity	102
COc1cc2ncc(-c3ccccc3)nc2cc1OC	residual activity	92.8
CN(C)C[C@H]1CCn2c(c(C3=C(c4cn(C)c5ccccc45)C(=O)NC3=O)c3ccccc32)C1	residual activity	95.3

----------
# Study System: PIM1 (human)
# Experiment Description: radiometric filter-binding kinase assay, Kinase HotSpot
# Cond: compound 0.5 µM; ATP 10 µM

Record Smiles	residual activity, %
CN(C)C[C@H]1CCn2c(c(C3=C(c4cn(C)c5ccccc45)C(=O)NC3=O)c3ccccc32)C1	63.2
O=C(Nc1cccc(Nc2cc(Nc3cccc(C(F)(F)F)c3)ncn2)c1)C1CC1	104
Cc1nc2cc3nc(-c4cccs4)cnc3cc2n1C	103
COc1ccc(OC)c2c(=S)c3ccccc3[nH]c12	93
Cn1sc(=O)n(Cc2ccccc2)c1=O	93
Nc1nnc2[nH]c3ccccc3nc1-2	94
CCn1cnc2c(Nc3cccc(Cl)c3)nc(N[C@@H]3CCCC[C@@H]3N)nc21	83.8
Cn1cnc2cc3c(Nc4cccc(Br)c4)ncnc3cc21	73.8
COc1cc2ncnc(N3CCN(C(=O)Nc4ccc(Oc5ccccc5)cc4)CC3)c2cc1OC	102
O=C1Nc2ccccc2/C1=C1\Nc2ccccc2\C1=N/O	85.2
CC(C)[C@H](CO)Nc1nc(Nc2cc(N)cc(Cl)c2)c2ncn(C(C)C)c2n1	98

----------
# Study System: MKNK2 (human)
# Experiment Description: radiometric filter-binding kinase assay, Kinase HotSpot
# Cond: compound 0.5 µM; ATP 10 µM
Readout: residual activity (%)

Record Smiles	Quantity Unit	Measured Number
Nc1nccc(-c2c(-c3ccc(F)cc3)ncn2C2CCNCC2)n1	%	92.1
COc1cc2ncc(-c3ccccc3)nc2cc1OC	%	86.3
CN(C)C[C@H]1CCn2c(c(C3=C(c4cn(C)c5ccccc45)C(=O)NC3=O)c3ccccc32)C1	%	85.8
Cc1nc2cc3nc(-c4cccs4)cnc3cc2n1C	%	108
Cn1sc(=O)n(Cc2ccccc2)c1=O	%	92.1
CCN(CC)CCCCN1c2ccccc2Oc2ccc(Cl)cc21	%	111
O=C1NC(=O)/C(=C\c2ccc3nccnc3c2)S1	%	98.2
COc1cc2ncnc(N3CCN(C(=O)Nc4ccc(Oc5ccccc5)cc4)CC3)c2cc1OC	%	94.2
O=C(Nc1cccc(Nc2cc(Nc3cccc(C(F)(F)F)c3)ncn2)c1)C1CC1	%	83.8
O=C1NC(=O)C(c2c[nH]c3ccccc23)=C1c1c[nH]c2ccccc12	%	89.6
CC(C)[C@H](CO)Nc1nc(Nc2cc(N)cc(Cl)c2)c2ncn(C(C)C)c2n1	%	113

----------
# Study System: UniProtKB P36888
# Sequence (P36888 whole entry, looked up): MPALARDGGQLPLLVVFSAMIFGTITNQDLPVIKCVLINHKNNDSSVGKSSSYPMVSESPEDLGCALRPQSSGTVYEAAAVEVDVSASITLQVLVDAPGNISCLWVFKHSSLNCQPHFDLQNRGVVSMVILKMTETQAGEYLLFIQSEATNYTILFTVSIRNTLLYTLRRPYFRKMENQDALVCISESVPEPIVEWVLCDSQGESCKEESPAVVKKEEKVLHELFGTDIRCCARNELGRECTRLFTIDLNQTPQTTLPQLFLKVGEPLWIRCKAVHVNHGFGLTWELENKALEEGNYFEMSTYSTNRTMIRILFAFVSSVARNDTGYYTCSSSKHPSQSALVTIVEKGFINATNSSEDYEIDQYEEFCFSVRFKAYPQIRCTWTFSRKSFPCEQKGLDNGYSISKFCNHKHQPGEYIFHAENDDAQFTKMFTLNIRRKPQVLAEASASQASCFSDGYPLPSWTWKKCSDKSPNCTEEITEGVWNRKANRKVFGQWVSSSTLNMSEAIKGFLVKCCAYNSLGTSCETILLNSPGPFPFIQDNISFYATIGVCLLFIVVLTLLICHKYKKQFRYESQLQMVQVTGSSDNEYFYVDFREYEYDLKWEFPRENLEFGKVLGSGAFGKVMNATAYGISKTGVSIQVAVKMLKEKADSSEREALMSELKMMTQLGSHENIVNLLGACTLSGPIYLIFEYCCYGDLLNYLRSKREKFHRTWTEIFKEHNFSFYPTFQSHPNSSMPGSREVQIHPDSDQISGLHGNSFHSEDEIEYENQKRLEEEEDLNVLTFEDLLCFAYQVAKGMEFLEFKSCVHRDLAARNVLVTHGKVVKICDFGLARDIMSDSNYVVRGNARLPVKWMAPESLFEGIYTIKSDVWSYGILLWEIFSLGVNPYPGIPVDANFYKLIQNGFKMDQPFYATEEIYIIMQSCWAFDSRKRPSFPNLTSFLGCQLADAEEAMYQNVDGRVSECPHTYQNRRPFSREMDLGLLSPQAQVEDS
# Experiment Description: radiometric filter-binding kinase assay, Kinase HotSpot
# Cond: compound 0.5 µM; ATP 10 µM

Molecule	residual activity [%]
O=C1Nc2ccccc2/C1=C1/Nc2ccccc2/C1=N\OCCC(O)CO (stereo not given)	1.07
CN(C)C[C@H]1CCn2c(c(C3=C(c4cn(C)c5ccccc45)C(=O)NC3=O)c3ccccc32)C1	37.1
CC(C)c1nn(-c2c(Cl)cccc2Cl)c2nc(Cc3ccc(OCCO)cc3)nc(O)c12	74.2
O=C(Nc1cccc(Nc2cc(Nc3cccc(C(F)(F)F)c3)ncn2)c1)C1CC1	97.9
COc1cc2ncnc(N3CCN(C(=O)Nc4ccc(Oc5ccccc5)cc4)CC3)c2cc1OC	43.2
O=C1NC(=O)C(c2c[nH]c3ccccc23)=C1c1c[nH]c2ccccc12	16.1
O=C1NC(=O)/C(=C\c2ccc3nccnc3c2)S1	95.2
COc1ccc(CNC(=O)Nc2ncc([N+](=O)[O-])s2)cc1	98.9
CC(=O)O/N=C1\C(=C2\C(=O)Nc3cc(Br)ccc32)Nc2ccccc21	21.6
Cn1sc(=O)n(Cc2ccccc2)c1=O	99.1

Where do these numbers come from? They come from the kinase profiling compilation of Christmann-Franck et al. (2016).
